# Test system: ESO26 (Esophageal Adenocarcinoma)
# protocolDescription: combination Emax (second highest fraction inhibited in the dose matrix, 72 h); higher = more inhibition; extreme values may be limits of the assay
Quick list: combination Emax per entry.
measurementName: combination Emax

CCN(CCO)CCCOc1ccc2c(Nc3cc(CC(=O)Nc4cccc(F)c4)[nH]n3)ncnc2c1 [AZD2811] + C[C@@H]1COCCN1C2=NC(=NC(=C2)C3(CC3)[S@](=N)(=O)C)C4=C5C=CNC5=NC=C4 [AZD6738] (first compound max 1 µM, 7x7, partner max 10 µM) ... 0.0804
CN(CCO)CC[C@H](CSc1ccccc1)Nc1ccc(S(=O)(=O)NC(=O)c2ccc(N3CCC([C@@H](O)c4ccccc4-c4ccc(Cl)cc4)CC3)cc2)cc1S(=O)(=O)C(F)(F)F [AZD4320] + CCN(CCO)CCCOc1ccc2c(Nc3cc(CC(=O)Nc4cccc(F)c4)[nH]n3)ncnc2c1 [AZD2811] (first compound max 1 µM, 7x7, partner max 1 µM) ... 0.112
CCc1c2c(nc3ccc(O)cc13)-c1cc3c(c(=O)n1C2)COC(=O)[C@]3(O)CC [SN-38] + O=C(c1cc(Cc2n[nH]c(=O)c3ccccc23)ccc1F)N1CCN(C(=O)C2CC2)CC1 [Olaparib] (first compound max 0.3 µM, 7x7, partner max 10 µM) ... 0.764

* * *

# Tested on: COLO-792 (Melanoma);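 note: after 72 h of two-drug dosing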
# protocolDescription: Bliss excess, mean over the matrix (fraction); higher = more synergy
If the reported Bliss excess equals or exceeds -0.01, assign condition met. If not, assign condition not met.

CC(=O)c1c(C)c2cnc(Nc3ccc(N4CCNCC4)cn3)nc2n(C2CCCC2)c1=O [Palbociclib] + Cn1cnc2c(F)c(Nc3ccc(Br)cc3Cl)c(C(=O)NOCCO)cc21 [Selumetinib] (first compound max 10 µM, 7x7, partner max 10 µM) ... condition not met
CC(=O)c1c(C)c2cnc(Nc3ccc(N4CCNCC4)cn3)nc2n(C2CCCC2)c1=O [Palbociclib] + Cc1c2c(nn1C)CSCc1cc(n(C)n1)CSc1cc(c3ccccc3c1)OCCCc1c(C(=O)O)n(C)c3c-2c(Cl)ccc13 [AZD5991] (first compound max 10 µM, 7x7, partner max 1 µM) ... condition not met
NC1(C(=O)N[C@@H](CCO)c2ccc(Cl)cc2)CCN(c2ncnc3[nH]ccc23)CC1 [Capivasertib] + Cn1cnc2c(F)c(Nc3ccc(Br)cc3Cl)c(C(=O)NOCCO)cc21 [Selumetinib] (first compound max 10 µM, 7x7, partner max 10 µM) ... condition met
Cc1cc2ncnn2cc1Nc1ncc2c(n1)n(C1CCOCC1)c(=O)n2C [AZD7648] + O=C(c1cc(Cc2n[nH]c(=O)c3ccccc23)ccc1F)N1CCN(C(=O)C2CC2)CC1 [Olaparib] (first compound max 10 µM, 7x7, partner max 10 µM) ... condition not met
CC1(C)CCC(CN2CCN(c3ccc(C(=O)NS(=O)(=O)c4ccc(NCC5CCOCC5)c([N+](=O)[O-])c4)c(Oc4cnc5[nH]ccc5c4)c3)CC2)=C(c2ccc(Cl)cc2)C1 [Venetoclax] + C[C@@H]1COCCN1C2=NC(=NC(=C2)C3(CC3)[S@](=N)(=O)C)C4=C5C=CNC5=NC=C4 [AZD6738] (first compound max 1 µM, 7x7, partner max 10 µM) ... condition met
CCN(CCO)CCCOc1ccc2c(Nc3cc(CC(=O)Nc4cccc(F)c4)[nH]n3)ncnc2c1 [AZD2811] + C[C@@H]1COCCN1C2=NC(=NC(=C2)C3(CC3)[S@](=N)(=O)C)C4=C5C=CNC5=NC=C4 [AZD6738] (first compound max 1 µM, 7x7, partner max 10 µM) ... condition met

Recorded values, source the supplement of paper PMC11061612.
